What pIC50 was measured for each of the following?
Molecular target: Full length human recombinant HDAC11 (Homo sapiens)
Construct: Full length human recombinant HDAC6 and HDAC11 proteins were expressed in baculoviral system
Experiment: In vitro histone deacetylase assay, enzymatic HDAC11 (electrophoretic mobility shift assay)
Settings: 10 nM HDAC11; 2 μM peptide substrate FAM-RHKK(tri-fluor-Ac)—NH2; 25° C.; 12 concentrations; read-out: HDAC11 Activity Range (IC50)
pIC50: −log10 of the molar value.

O=C(NO)c1ccc2c(c1)C[C@]1(CC2)CCN(c2cnc3ccccn23)C1=O
6.30 to 7.00
CN1CC[C@@]2(CCc3ccc(C(=O)NO)cc3C2)C1
< 6.30
O=C(NO)c1ccc2c(c1)C[C@]1(CC2)CCN(c2ccc3nccn3c2)C1=O
6.30 to 7.00
O=C(NO)c1ccc2c(c1)C[C@@]1(CC2)CCN(c2cccnc2)C1=O
6.30 to 7.00
O=C(NO)c1ccc2c(c1)C[C@]1(CC2)CCN(CC2CCOCC2)C1=O
< 6.30

Look up pIC50 for the entries below, preserving their order.
1. O=C(NO)c1ccc2c(c1)C[C@@]1(CC2)CCN(Cc2cccc(Cl)c2)C1=O
2. O=C(NO)c1ccc2c(c1)C[C@@]1(CC2)CCN(Cc2ccc(OC(F)(F)F)cc2)C1=O
3. O=C(NO)c1ccc2c(c1)C[C@@]1(CC2)CCN(Cc2cccc(F)c2)C1=O

A:
["< 6.30", "< 6.30", "< 6.30"]

* * *

I'd appreciate it if you could supply IC50 values for the items below.
Biological target: Full length human recombinant HDAC6 (Homo sapiens, UniProt Q9UBN7)
Construct: Full length human recombinant HDAC6 and HDAC11 proteins were expressed in baculoviral system
Sequence (Q9UBN7 whole entry): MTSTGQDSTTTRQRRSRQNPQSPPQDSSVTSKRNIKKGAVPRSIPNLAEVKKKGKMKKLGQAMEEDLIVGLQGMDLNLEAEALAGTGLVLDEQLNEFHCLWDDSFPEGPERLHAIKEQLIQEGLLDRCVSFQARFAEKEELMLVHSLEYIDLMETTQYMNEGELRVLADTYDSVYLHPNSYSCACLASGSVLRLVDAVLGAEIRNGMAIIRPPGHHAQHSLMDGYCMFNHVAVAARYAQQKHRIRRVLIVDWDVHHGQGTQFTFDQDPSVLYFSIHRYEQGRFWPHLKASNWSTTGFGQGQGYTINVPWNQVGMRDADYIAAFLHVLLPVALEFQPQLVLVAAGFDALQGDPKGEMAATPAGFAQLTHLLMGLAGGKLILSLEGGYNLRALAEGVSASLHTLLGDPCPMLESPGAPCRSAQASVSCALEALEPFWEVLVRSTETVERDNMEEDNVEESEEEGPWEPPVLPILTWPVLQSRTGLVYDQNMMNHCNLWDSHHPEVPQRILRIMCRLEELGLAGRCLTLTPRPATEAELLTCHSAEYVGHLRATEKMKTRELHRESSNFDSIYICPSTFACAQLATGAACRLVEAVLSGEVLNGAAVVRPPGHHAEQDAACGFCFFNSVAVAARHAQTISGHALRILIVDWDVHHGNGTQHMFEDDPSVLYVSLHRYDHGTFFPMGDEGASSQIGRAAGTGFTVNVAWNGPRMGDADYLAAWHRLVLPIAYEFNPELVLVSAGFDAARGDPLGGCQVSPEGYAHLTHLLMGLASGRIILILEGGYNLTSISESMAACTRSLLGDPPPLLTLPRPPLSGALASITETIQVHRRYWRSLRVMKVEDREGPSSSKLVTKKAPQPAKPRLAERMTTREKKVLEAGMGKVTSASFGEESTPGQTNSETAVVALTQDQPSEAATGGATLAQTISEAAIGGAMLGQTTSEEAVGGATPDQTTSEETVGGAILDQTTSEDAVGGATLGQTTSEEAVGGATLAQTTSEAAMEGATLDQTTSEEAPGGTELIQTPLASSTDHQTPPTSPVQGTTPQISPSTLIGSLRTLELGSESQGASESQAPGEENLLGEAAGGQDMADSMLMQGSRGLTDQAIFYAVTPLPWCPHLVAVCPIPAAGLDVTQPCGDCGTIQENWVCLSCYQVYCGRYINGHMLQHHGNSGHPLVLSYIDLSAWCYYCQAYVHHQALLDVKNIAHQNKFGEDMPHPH
Test: In vitro histone deacetylase assay, enzymatic HDAC6 (electrophoretic mobility shift assay)
Settings: 1 nM HDAC6; 2 μM peptide substrate FAM-RHKK(Ac)—NH2; 25° C.; 12 concentrations; read-out: HDAC6 Activity Range (IC50)

Answered cases to consult:
COCCn1c(N2CC[C@@]3(CCc4ccc(C(=O)NO)cc4C3)C2=O)nc2ccccc21
≤ 100 nM
COc1cccc(CN2CC[C@]3(CCc4ccc(C(=O)NO)cc4C3)C2=O)c1
≤ 100 nM

Next compound, IC50 to be filled in.
Q: // lookup IC50 | system=Full length human recombinant HDAC6 (Homo sapiens, UniProt Q9UBN7) | key= O=C(NO)c1ccc2c(c1)C[C@]1(CC2)CCN(Cc2ccc(C(F)(F)F)c(F)c2)C1=O
A: ≤ 100 nM

* * *

Target: Full length human recombinant HDAC11 (Homo sapiens)
Construct: Full length human recombinant HDAC6 and HDAC11 proteins were expressed in baculoviral system
Test: In vitro histone deacetylase assay, enzymatic HDAC11 (electrophoretic mobility shift assay)
Type: biochemical
Settings: 10 nM HDAC11; 2 μM peptide substrate FAM-RHKK(tri-fluor-Ac)—NH2; 25° C.; 12 concentrations; read-out: HDAC11 Activity Range (IC50)
assay_metric: IC50

# example entries with known answers
COc1ccccc1CN1CC[C@]2(CCc3ccc(C(=O)NO)cc3C2)C1=O
100 to 500 nM
O=C(NO)c1ccc2c(c1)C[C@@]1(CC2)CCN(CC2CCC2)C1=O
> 500 nM
COCCCN1C[C@@]2(CCc3ccc(C(=O)NO)cc3C2)CC1=O
> 500 nM
O=C(NO)c1ccc2c(c1)C[C@]1(CC2)CCN(Cc2cccc(F)c2)C1=O
≤ 100 nM

Hi there! I need IC50 for each item below, if you can.
1. O=C(NO)c1ccc2c(c1)C[C@@]1(CC2)CCN(Cc2ccccc2OC(F)(F)F)C1=O
2. O=C(NO)c1ccc2c(c1)CC1(CC2)CCN(Cc2ccc(Cl)c(Cl)c2)C1=O (stereo not drawn)

A:
1. > 500 nM
2. ≤ 100 nM

* * *

Molecular target: Full length human recombinant HDAC6 (Homo sapiens)
Construct: Full length human recombinant HDAC6 and HDAC11 proteins were expressed in baculoviral system
Assay: In vitro histone deacetylase assay, enzymatic HDAC6 (electrophoretic mobility shift assay)
Type: biochemical
Details: 1 nM HDAC6; 2 μM peptide substrate FAM-RHKK(Ac)—NH2; 25° C.; 12 concentrations; read-out: HDAC6 Activity Range (IC50)
pIC50: −log10 of the molar value.
Give pIC50 for every item shown.

In the examples that follow, each entry is paired with its recorded pIC50.
O=C(NO)c1ccc2c(c1)CC1(CC2)CCN(c2ccncc2)C1=O (centres unmarked)
≥ 7.00
O=C(NO)c1ccc2c(c1)C[C@]1(CC2)CCN(c2ccccc2)C1
≥ 7.00
COc1ccc(CN2CCC3(CCc4ccc(C(=O)NO)cc4C3)C2)cc1 (centres unmarked)
6.30 to 7.00
O=C(NO)c1ccc2c(c1)CC1(CC2)CCN(S(=O)(=O)C2CCCCC2)C1 (centres unmarked)
≥ 7.00

Items follow; give pIC50 for each.
1. CC(C)N1C[C@@]2(CCc3ccc(C(=O)NO)cc3C2)CC1=O
2. O=C(NO)c1ccc2c(c1)C[C@@]1(CC2)CCN(c2ccc3c(c2)OCO3)C1=O
3. O=C(NO)c1ccc2c(c1)C[C@]1(CC2)CCN(CCCO)C1=O
4. CC(C)n1c(CN2CC[C@@]3(CCc4ccc(C(=O)NO)cc4C3)C2=O)nc2ccccc21
5. O=C(NO)c1ccc2c(c1)CC1(CC2)CCN(Cc2ccc(Cl)c(Cl)c2)C1=O (centres unmarked)

A:
1: ≥ 7.00; 2: ≥ 7.00; 3: ≥ 7.00; 4: ≥ 7.00; 5: ≥ 7.00

Hey, can you go through the list below and give me pIC50 for every item?
1. COc1ccccc1N1CC[C@@]2(CCc3ccc(C(=O)NO)cc3C2)C1=O
2. O=C(NO)c1ccc2c(c1)C[C@]1(CC2)CC(=O)N(CC(F)(F)F)C1

A:
≥ 7.00
≥ 7.00

Give pIC50 for all molecules that follow.
1. O=C(NO)c1ccc2c(c1)C[C@@]1(CC2)CCN(Cc2ccc(F)cc2)C1=O
2. O=C(NO)c1ccc2c(c1)C[C@]1(CC2)CCN(c2cccnc2)C1=O
3. O=C(NO)c1ccc2c(c1)C[C@@]1(CC2)CCN(Cc2ccc3nonc3c2)C1=O
4. O=C(NO)c1ccc2c(c1)C[C@@]1(CC2)CC(=O)N(CC2CCC2)C1
5. O=C(NO)c1ccc2c(c1)C[C@@]1(CC2)CCN(c2ccccn2)C1=O
6. O=C(NO)c1ccc2c(c1)CC1(CC2)CCN(Cc2ccncc2)C1=O (centres unmarked)
7. O=C(NO)c1ccc2c(c1)C[C@]1(CC2)CCN(c2ccccn2)C1=O

A:
1: ≥ 7.00; 2: ≥ 7.00; 3: ≥ 7.00; 4: ≥ 7.00; 5: ≥ 7.00; 6: ≥ 7.00; 7: ≥ 7.00

* * *

Target: Full length human recombinant HDAC11 (Homo sapiens, UniProt Q96DB2)
Construct: Full length human recombinant HDAC6 and HDAC11 proteins were expressed in baculoviral system
Sequence (Q96DB2 whole entry): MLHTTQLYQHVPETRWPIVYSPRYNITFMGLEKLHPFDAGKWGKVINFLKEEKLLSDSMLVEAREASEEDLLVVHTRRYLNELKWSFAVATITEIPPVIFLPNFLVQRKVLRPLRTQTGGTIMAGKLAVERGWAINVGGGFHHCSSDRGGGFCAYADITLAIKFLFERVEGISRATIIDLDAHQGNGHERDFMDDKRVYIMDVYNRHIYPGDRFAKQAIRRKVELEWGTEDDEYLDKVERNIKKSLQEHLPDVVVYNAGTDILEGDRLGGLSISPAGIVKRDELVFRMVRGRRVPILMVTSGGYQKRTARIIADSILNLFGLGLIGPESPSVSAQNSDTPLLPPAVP
Assay: In vitro histone deacetylase assay, enzymatic HDAC11 (electrophoretic mobility shift assay)
Settings: 10 nM HDAC11; 2 μM peptide substrate FAM-RHKK(tri-fluor-Ac)—NH2; 25° C.; 12 concentrations; read-out: HDAC11 Activity Range (IC50)
pIC50: −log10 of the molar value.
assay_metric: pIC50

Would you please look over these solved cases?
O=C(NO)c1ccc2c(c1)C[C@@]1(CC2)CCN(c2ccccn2)C1=O
< 6.30
O=C(NO)c1ccc2c(c1)C[C@@]1(CC2)CC(=O)N(Cc2ccc(F)cc2)C1
< 6.30
O=C(NO)c1ccc2c(c1)C[C@@]1(CC2)CCN(Cc2ccc(F)cc2)C1=O
< 6.30

Q: Give the measured pIC50 of O=C(NO)c1ccc2c(c1)C[C@@]1(CC2)CCN(Cc2ccc(C(F)(F)F)c(F)c2)C1=O .
A: ≥ 7.00

* * *

Biological target: Full length human recombinant HDAC11 (Homo sapiens, UniProt Q96DB2)
Construct: Full length human recombinant HDAC6 and HDAC11 proteins were expressed in baculoviral system
Assay: In vitro histone deacetylase assay, enzymatic HDAC11 (electrophoretic mobility shift assay)
Settings: 10 nM HDAC11; 2 μM peptide substrate FAM-RHKK(tri-fluor-Ac)—NH2; 25° C.; 12 concentrations; read-out: HDAC11 Activity Range (IC50)
pIC50: −log10 of the molar value.
assay_metric: pIC50

CS(=O)(=O)N1CCC2(CCc3ccc(C(=O)NO)cc3C2)C1 (stereo not drawn) [Compound I-13]
< 6.30
O=C(NO)c1ccc2c(c1)OC1(CC2)CCN(C2CCCCC2)CC1 [II-6]
≥ 7.00
O=C(NO)c1ccc2c(c1)C[C@@]1(CCNC1=O)CC2 [Compound I-48]
< 6.30
COCCn1c(CN2CC[C@]3(CCc4ccc(C(=O)NO)cc4C3)C2=O)nc2ccccc21 [Compound I-46]
6.30 to 7.00
O=C(NO)c1ccc2c(c1)C[C@]1(CC2)CCN(Cc2ccc(C(F)(F)F)c(F)c2)C1=O [Compound I-125]
6.30 to 7.00

Please give pIC50, item by item, for the list that follows.
1. O=C(NO)c1ccc2c(c1)C[C@@]1(CC2)CCN(Cc2ccc3ccccc3c2)C1=O [Compound I-77]
2. CN1C[C@@]2(CCc3ccc(C(=O)NO)cc3C2)CC1=O [Compound I-130]
3. O=C(NO)c1ccc2c(c1)CC1(CC2)CCN(CC2CCCCC2)C1=O (stereo not drawn) [Compound I-23]
4. CC(C)CCN1CC[C@]2(CCc3ccc(C(=O)NO)cc3C2)C1=O [Compound I-82]
5. O=C(NO)c1ccc2c(c1)C[C@@]1(CC2)CCN(Cc2ccccc2F)C1=O [Compound I-76]
6. CN1C[C@]2(CCc3ccc(C(=O)NO)cc3C2)CC1=O [Compound I-131]
7. O=C(NO)c1ccc2c(c1)C[C@@]1(CC2)CCN(Cc2ccccn2)C1=O [Compound I-71]
8. COc1ccc(S(=O)(=O)N2CCC3(CCc4ccc(C(=O)NO)cc4C3)C2)cc1 (stereo not drawn) [Compound I-2]

A:
1. 6.30 to 7.00
2. < 6.30
3. 6.30 to 7.00
4. 6.30 to 7.00
5. < 6.30
6. < 6.30
7. < 6.30
8. < 6.30

Okay, here is my list. What is pIC50 for each of these?
1. CCN1C[C@]2(CCc3ccc(C(=O)NO)cc3C2)CC1=O [Compound I-143]
2. O=C(NO)c1ccc2c(c1)C[C@]1(CC2)CC(=O)N(Cc2ccc(F)cc2)C1 [Compound I-128]
3. CC(=O)N1CCC2(CCc3ccc(C(=O)NO)cc3C2)C1 (stereo not drawn) [Compound I-12]
4. O=C(NO)c1ccc2c(c1)OC1(CC2)CCN(S(=O)(=O)C2CCCCC2)CC1 [II-3]
5. CN1CCC2(CCc3ccc(C(=O)NO)cc3C2)C1 (stereo not drawn) [Compound I-9]

A:
["< 6.30", "< 6.30", "< 6.30", "≥ 7.00", "< 6.30"]
